assay: gradient 5% acetonitrile 3 min, to 50% in 2 min, to 85% in 15 min, held 3 min, 100 µL/min; conditions: column: Zorbax Extend-C18 2.1 x 50 mm; eluents: water / acetonitrile, 0.1% formic acid
Task for the reader: assign each of the following molecules its reported RP-LC retention time.
Reply with the number and its unit after it.

Check out these entries, answers already filled in.
{"Molecule": "COc1ccc(CNC(=O)CCc2nc3ccc(C)cc3c(=O)n2C)cc1", "Experimental value": "748 s"}
{"Molecule": "CCOc1ccc(C(=O)N2CCC3(CC2)C(=O)N(C)c2ccccc23)cc1OCC", "Experimental value": "842 s"}
{"Molecule": "CCCC(=O)Nc1ccc2c(c1)CN(C(=O)Cc1ccc(F)cc1)C(C(=O)N(C)C)C2 (stereo not given)", "Experimental value": "672 s"}
{"Molecule": "COc1ccc2c(c1)C1(CCN(C(=O)Cc3ccccc3Cl)C1)C(=O)N2C (stereo not given)", "Experimental value": "848 s"}

Give reported RP-LC retention time value for Cc1ccccc1Cn1nc2n(c1=O)CCCCC2
772 s

====

test: gradient 5% acetonitrile 3 min, to 50% in 2 min, to 85% in 15 min, held 3 min, 100 µL/min; settings: column: Zorbax Extend-C18 2.1 x 50 mm; eluents: water / acetonitrile, 0.1% formic acid
Task for the reader: assign each of the following compounds its reported RP-LC retention time.
Give bare numbers, in s.

{"Compound": "CN(C)[C@@H]1CN(C(=O)Cn2c(=O)oc3cc(Cl)ccc32)C[C@H]1CO", "RP-LC retention time [s]": 596}
{"Compound": "CC(=O)Nc1cc(-c2nc(-c3ccc4oc(C)nc4c3)no2)ccc1C", "RP-LC retention time [s]": 803}
{"Compound": "Cc1ccn2c(=O)cc(CN(C)Cc3ccc(Cl)cc3)nc2c1", "RP-LC retention time [s]": 631}
{"Compound": "COc1ccc(C2(C(=O)N3CCN(S(=O)(=O)c4c(C)nn(C(C)C)c4C)CC3)CC2)cc1", "RP-LC retention time [s]": 889}
{"Compound": "CON(C)C(=O)N1N=C(c2cc(F)ccc2F)S[C@@]1(CCCN)c1ccccc1", "RP-LC retention time [s]": 792}

Answer for every listed entry: what is its RP-LC retention time? The entries follow.
1. Cc1ccc(C(=O)NCCc2nc3cccnc3n2C(C)C)cc1C
2. CCCc1noc(-c2cccnc2N2CCCN(Cc3ccccc3C)CC2)n1
3. O=C(CN1C(=O)CC(c2cccs2)=Nc2ccccc21)NCc1ccccc1
4. O=C(NCc1ccc2c(c1)OCO2)c1ccc(-c2cccs2)nc1
5. O=C(c1ccoc1)N1CCC(c2cc(-c3ccc(F)cc3)n[nH]2)CC1
6. CCN1CCN(C(=O)C2CCCN(c3ncnc4c3nc3n4CCCCC3)C2)CC1 (stereo not given)
7. CCOc1ccc(S(=O)(=O)N2CCCC(C(=O)Nc3ccccc3)C2)cc1 (stereo not given)

[695, 740, 876, 863, 777, 575, 999]

Answer for every listed entry: what is its RP-LC retention time? The entries follow.
1. CCCN(CCC)C(=O)C1CCCN(c2ccc(-c3ccc(C)cc3)nn2)C1 (stereo not given)
2. COC(=O)N[C@@H](C)CNc1nccc(-c2cn(C(C)C)nc2-c2cc(Cl)cc(NS(C)(=O)=O)c2F)n1
3. CC1CCCN(CC2CCN(S(=O)(=O)c3ccc(C#N)cc3)CC2)C1 (stereo not given)
4. CC(C)c1nncn1C1CCN(S(=O)(=O)c2cccc(F)c2)CC1
5. CCN1C(=O)COc2ccc(-c3noc(-c4ccc5cc[nH]c5c4)n3)cc21

826
792
644
707
1040

Answer for every listed entry: what is its RP-LC retention time? The entries follow.
1. CC(C)NC(=O)Cn1cccc(-c2nc(-c3ccc(F)cc3)no2)c1=O
2. COc1cccc(CNC(=O)N2CCCC2c2c(C)noc2C)c1 (stereo not given)
3. CC(=O)NC(C)c1nc(-c2ccc(C(C)(C)C)cc2)no1 (stereo not given)

[735, 733, 901]
